assay: NCI Yeast Anticancer Drug Screen. Data for the bub3 strain (AID 167); settings: S. cerevisiae bub3 mutant strain, at 50.0 µM
About 79,000 compounds went through this panel and 15% of them were active in at least one assay; those are over-represented in the sample as a whole. Activity calls are given as the source filed them. Cut-off read from the data, not from the text of the source: active = growth inhibition above about 70%; inactive = the rest.
Select the correct class. Options are active, inactive and nothing else.

Lab log entry: `NCCN.O=C([O-])C(=O)[O-].O=C([O-])C(=O)[O-].[Co+3].[K+]` — outcome as called in the assay? inactive

Lab log entry: `COc1ccc(C=C2C(=O)NC(=O)NC2=O)cc1OC` — outcome as called in the assay? inactive

Lab log entry: `NC(=O)Cc1nn[nH]n1` — outcome as called in the assay? inactive

Lab log entry: CC1(C(N)Cc2c[nH]c3ccccc23)OCCO1 (stereo not drawn) — outcome as called in the assay? inactive

Lab log entry: `C[C@]12CC[C@H]3[C@@H](CCC4=CC(=O)CC[C@@]43C)[C@@H]1CC[C@@H]2OC(=O)c1cccc2c(=O)c3ccccc3[nH]c12` — outcome as called in the assay? active

Lab log entry: `C[CH2][Sn]1([CH2]C)[O]C(=O)CC(=O)[O]1` — outcome as called in the assay? inactive

Lab log entry: `CC(=O)CC(=O)Nc1c(C)[c]([Hg][O]C(C)=O)c(C)[c]([Hg][O]C(C)=O)[c]1[Hg][O]C(C)=O` — outcome as called in the assay? active

Lab log entry: `NC(=O)c1ccc([As](=O)(O)O)cc1[N+](=O)[O-]` — outcome as called in the assay? inactive

Lab log entry: `CC1=CC(=O)C=CC1=O` — outcome as called in the assay? inactive

Lab log entry: O=[N+]([O-])c1cc(/C=N\NC(=S)NC2CN3CCC2CC3)ccc1Cl (stereo not drawn) — outcome as called in the assay? inactive

Lab log entry: CC(=O)SCCC(NC(=S)Nc1ccccc1)P(=O)(Oc1ccccc1)Oc1ccccc1 (stereo not drawn) — outcome as called in the assay? inactive

Lab log entry: `N#CCCCBr` — outcome as called in the assay? inactive

Lab log entry: `NCCN.NCCN.[Cl-].[O]=[Re]=[O]` — outcome as called in the assay? inactive

Lab log entry: `CC(=S)N=Cc1c(O)[nH]c(=O)[nH]c1=O` — outcome as called in the assay? inactive

Lab log entry: `CCCCN(CCCC)CCc1ccccc1` — outcome as called in the assay? inactive

Lab log entry: `O=C(Nc1ccc(S(=O)(=O)Nc2ccc(N=Nc3ccc(N=Nc4ccccc4)cc3)cc2)cc1)C(N1CC1)(N1CC1)N1CC1` — outcome as called in the assay? inactive

Lab log entry: CC1Oc2cc3c(-c4c(O)cc(O)c5c(O)c6c(cc45)OC(C)C(C)C6=O)c(O)cc(O)c3c(O)c2C(=O)C1C (stereo not drawn) — outcome as called in the assay? active

Lab log entry: `O=c1cc(O)c1=O` — outcome as called in the assay? inactive

Lab log entry: `O=S(=O)(O)c1ccc(CBr)cc1` — outcome as called in the assay? inactive

Lab log entry: `CC(C)N1CCc2cc3c(cc2C1)OCO3` — outcome as called in the assay? inactive

Lab log entry: `ClCCN(CCCl)c1ccc(N=Cc2ccccc2)cc1` — outcome as called in the assay? inactive

Lab log entry: `CC(=O)c1ccc(N2CCNCC2)cc1` — outcome as called in the assay? inactive

Lab log entry: `COc1cc([N+](=O)[O-])ccc1[As](=O)(O)O` — outcome as called in the assay? inactive

Lab log entry: CC(C)=CCN1CCC2(C)c3cc(O)ccc3CCC2C1 (stereo not drawn) — outcome as called in the assay? inactive

Lab log entry: `N#CC(C#N)=Cc1cccc(C#N)c1` — outcome as called in the assay? inactive

Lab log entry: `N#CN(Cc1ccccc1)C(c1ccccc1)(c1ccccc1)c1ccccc1.[I][Sn]([c]1ccccc1)([c]1ccccc1)[c]1ccccc1` — outcome as called in the assay? active

Lab log entry: `CCOc1ccc(CCNC)c2c1ccc1ccc(OC)c(O)c12` — outcome as called in the assay? active

Lab log entry: CC1(O)CCC(O)CC1CC(=O)O (stereo not drawn) — outcome as called in the assay? inactive

Lab log entry: CC1(C)OC2(C)CCC1C(O)C2N1CCCCC1 (stereo not drawn) — outcome as called in the assay? inactive

Lab log entry: CC(N)Cc1ccc(Cl)cc1 (stereo not drawn) — outcome as called in the assay? inactive

Lab log entry: `CC(C)[CH2][Sn]([CH2]C(C)C)([CH2]C(C)C)[C](C)(C)C` — outcome as called in the assay? active

Lab log entry: `CCCN(CCC)C(=O)[S-].CCCN(CCC)C(=O)[S-].[Ni+2]` — outcome as called in the assay? inactive

Lab log entry: `CCCCCc1cc(/C=C2/N=C(c3ccc[nH]3)C=C2OC)[nH]c1C` — outcome as called in the assay? active

Lab log entry: `CCN1C(=O)C(=Cc2ccc(-c3ccccc3)cc2)C(=O)N(CC)C1=S` — outcome as called in the assay? inactive

Lab log entry: `CC(=O)Nc1nccs1.CC(=O)Nc1nccs1.[Cl][Pt][Cl]` — outcome as called in the assay? inactive

Lab log entry: CCCC(C)c1ccccc1OP(=S)(S)Oc1ccccc1C(C)CCC (stereo not drawn) — outcome as called in the assay? active

Lab log entry: `CCSc1nc(=[N+]2CCCC2)ss1` — outcome as called in the assay? active

Lab log entry: `O=C(O)c1cc(C(=O)O)cc(S(=O)(=O)F)c1` — outcome as called in the assay? inactive
